Here the recorded IC50 is given for each entry.
- Tested on: HUVEC TNFalpha-induced E-selectin immunofluorescence imaging
- TEST_DESCRIPTION: E-selectin expression inhibitors, dose response, confirmation, imaging, HUVEC, immunofluorescence, TNFalpha stimulation (AID 517)
The source made the active and inactive calls.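 The calls were made as follows: active = activity score of 15 or more, from fitted potency or summed per-dose inhibition z-scores, roughly IC50 of 5 µM; inactive = the rest.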

[
  {
    "COMPOUND": "Fc1cc(F)c(F)c(SCCc2ccncc2)c1F",
    "TGT": "HUVEC TNFalpha-induced E-selectin immunofluorescence imaging",
    "IC50": "> 8 µM (inactive)"
  },
  {
    "COMPOUND": "CC(=O)Nc1sc2c(c1CN1CCN(c3ccccn3)CC1)CCCC2",
    "TGT": "HUVEC TNFalpha-induced E-selectin immunofluorescence imaging",
    "IC50": "> 8 µM (inactive)"
  },
  {
    "COMPOUND": "Cc1ccc2[nH]c(=O)c(CN(CCc3ccccc3)Cc3nnnn3CC3CCCO3)cc2c1 (configuration not stated)",
    "TGT": "HUVEC TNFalpha-induced E-selectin immunofluorescence imaging",
    "IC50": "> 8 µM (inactive)"
  },
  {
    "COMPOUND": "O=C(COn1nnc2ccc(C(F)(F)F)cc21)Nc1nnc(-c2ccccc2)o1",
    "TGT": "HUVEC TNFalpha-induced E-selectin immunofluorescence imaging",
    "IC50": "> 8 µM (inactive)"
  },
  {
    "COMPOUND": "COc1ccc(Cl)cc1NC(=O)CSc1nncn1-c1cccnc1",
    "TGT": "HUVEC TNFalpha-induced E-selectin immunofluorescence imaging",
    "IC50": "> 8 µM (inactive)"
  },
  {
    "COMPOUND": "C=CCNc1nc(C)nc(OC)n1",
    "TGT": "HUVEC TNFalpha-induced E-selectin immunofluorescence imaging",
    "IC50": "> 8 µM (inactive)"
  },
  {
    "COMPOUND": "O=C(NCCCN1CCCC1=O)c1cncc(Br)c1",
    "TGT": "HUVEC TNFalpha-induced E-selectin immunofluorescence imaging",
    "IC50": "> 8 µM (inactive)"
  },
  {
    "COMPOUND": "FC(F)Oc1cccc2cccnc12",
    "TGT": "HUVEC TNFalpha-induced E-selectin immunofluorescence imaging",
    "IC50": "> 8 µM (inactive)"
  },
  {
    "COMPOUND": "CC1(C)CC(=O)C(C=NC(CCC(N)=O)C(=O)O)=C(O)C1 (configuration not stated)",
    "TGT": "HUVEC TNFalpha-induced E-selectin immunofluorescence imaging",
    "IC50": "> 8 µM (inactive)"
  },
  {
    "COMPOUND": "CC[C@H]1CN2CCc3cc(OC)c(OC)cc3[C@@H]2C[C@@H]1C[C@H]1NCCc2cc(OC)c(OC)cc21",
    "TGT": "HUVEC TNFalpha-induced E-selectin immunofluorescence imaging",
    "IC50": "0.08 µM"
  },
  {
    "COMPOUND": "N#CCCn1cnc2ccccc21",
    "TGT": "HUVEC TNFalpha-induced E-selectin immunofluorescence imaging",
    "IC50": "> 8 µM (inactive)"
  },
  {
    "COMPOUND": "C=CCn1c(-c2ccccc2)n[nH]c1=S",
    "TGT": "HUVEC TNFalpha-induced E-selectin immunofluorescence imaging",
    "IC50": "> 8 µM (inactive)"
  }
]

// provenance: PubChem BioAssay AID517
